measurement_target: T1, human DLL4 extracellular domain (human, UniProt Q9NR61 27-529)
T1 construct: purified recombinant ECD; biotin-labelled or 6xHis-tagged depending on the assay; also called huDLL4 ECD; hu DLL4 ECD
T1 sequence (Q9NR61 27-529 limits assumed): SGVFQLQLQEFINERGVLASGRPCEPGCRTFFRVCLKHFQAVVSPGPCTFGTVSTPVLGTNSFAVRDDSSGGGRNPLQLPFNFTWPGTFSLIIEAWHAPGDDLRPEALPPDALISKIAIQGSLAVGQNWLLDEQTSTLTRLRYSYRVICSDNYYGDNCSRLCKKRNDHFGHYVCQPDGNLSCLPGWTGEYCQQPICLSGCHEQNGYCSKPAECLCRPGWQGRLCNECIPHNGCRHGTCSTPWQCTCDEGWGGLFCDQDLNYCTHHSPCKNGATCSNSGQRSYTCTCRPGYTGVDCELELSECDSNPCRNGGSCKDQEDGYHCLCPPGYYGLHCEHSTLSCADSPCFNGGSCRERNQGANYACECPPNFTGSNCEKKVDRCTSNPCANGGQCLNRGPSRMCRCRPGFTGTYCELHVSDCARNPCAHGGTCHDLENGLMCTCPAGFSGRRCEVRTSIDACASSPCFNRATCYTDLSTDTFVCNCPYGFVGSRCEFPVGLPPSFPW
test: competition ELISA vs Notch-1
Friendly reminder: IC50 below 300 pM is condition met, at or above is condition not met.

INSERT INTO measurements (binder, assigned_category) VALUES
  ('1A11 chimeric antibody (antibody, human IgG1, V domains shown, also called Chimera of 1A11; 1A11 (chimera)) VH: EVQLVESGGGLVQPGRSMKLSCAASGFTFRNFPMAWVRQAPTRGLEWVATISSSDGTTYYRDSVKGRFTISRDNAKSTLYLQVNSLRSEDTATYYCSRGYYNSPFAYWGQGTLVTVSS VL: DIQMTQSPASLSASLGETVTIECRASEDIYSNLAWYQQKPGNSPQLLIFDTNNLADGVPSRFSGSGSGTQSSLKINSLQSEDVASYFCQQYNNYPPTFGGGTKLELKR', 'condition not met'),
  ('h1A11.15 (antibody, V domains shown, humanized IgG; also called VH.2a/VL.1b 1A11) VH: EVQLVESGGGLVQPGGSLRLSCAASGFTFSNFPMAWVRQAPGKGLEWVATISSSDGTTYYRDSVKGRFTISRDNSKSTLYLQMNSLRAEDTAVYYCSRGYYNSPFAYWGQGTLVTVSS VL: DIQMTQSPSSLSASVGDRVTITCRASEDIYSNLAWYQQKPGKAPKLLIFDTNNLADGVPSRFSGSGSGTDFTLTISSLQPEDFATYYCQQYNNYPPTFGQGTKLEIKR', 'condition met'),
  ('h1A11.10 (antibody, V domains shown, humanized IgG; also called VH.1b/VL.1a 1A11) VH: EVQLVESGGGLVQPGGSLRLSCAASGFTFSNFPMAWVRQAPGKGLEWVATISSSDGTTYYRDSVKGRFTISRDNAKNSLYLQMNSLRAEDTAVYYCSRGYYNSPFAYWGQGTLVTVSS VL: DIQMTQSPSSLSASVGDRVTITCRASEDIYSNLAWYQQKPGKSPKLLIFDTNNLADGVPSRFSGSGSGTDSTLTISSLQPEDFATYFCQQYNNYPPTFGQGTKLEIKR', 'condition not met'),
  ('h1A11.12 (antibody, V domains shown, humanized IgG; also called VH.1b/VL.2a 1A11) VH: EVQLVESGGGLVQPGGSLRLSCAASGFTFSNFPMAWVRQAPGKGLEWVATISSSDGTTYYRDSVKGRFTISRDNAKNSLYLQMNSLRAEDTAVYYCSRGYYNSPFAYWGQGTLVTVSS VL: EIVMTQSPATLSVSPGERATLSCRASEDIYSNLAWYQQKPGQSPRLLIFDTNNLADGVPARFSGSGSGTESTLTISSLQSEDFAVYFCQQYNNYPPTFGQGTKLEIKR', 'condition not met'),
  ('h1A11.3 (antibody, V domains shown, humanized IgG; also called VH.1/VL.1b 1A11) VH: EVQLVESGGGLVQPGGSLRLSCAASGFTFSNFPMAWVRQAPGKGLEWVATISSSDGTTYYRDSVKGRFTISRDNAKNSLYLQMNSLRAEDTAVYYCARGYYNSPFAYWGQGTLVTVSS VL: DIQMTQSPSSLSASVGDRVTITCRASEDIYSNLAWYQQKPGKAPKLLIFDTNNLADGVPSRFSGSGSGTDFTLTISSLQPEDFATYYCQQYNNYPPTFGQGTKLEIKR', 'condition met'),
  ('h1A11.1 (antibody, V domains shown, humanized IgG; also called hu1A11.1; VH.1/VL.1 1A11) VH: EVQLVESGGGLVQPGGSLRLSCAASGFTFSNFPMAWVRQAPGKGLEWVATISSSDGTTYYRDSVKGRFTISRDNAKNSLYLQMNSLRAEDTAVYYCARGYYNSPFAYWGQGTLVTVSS VL: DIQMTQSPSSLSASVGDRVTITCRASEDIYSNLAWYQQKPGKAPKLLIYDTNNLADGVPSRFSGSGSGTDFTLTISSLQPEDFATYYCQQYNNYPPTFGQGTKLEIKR', 'condition not met');

Does the reported IC50 of the following binder sit strictly below 300 pM? h1A11.11 (antibody, V domains shown, humanized IgG; also called VH.1b/VL.1b 1A11) VH: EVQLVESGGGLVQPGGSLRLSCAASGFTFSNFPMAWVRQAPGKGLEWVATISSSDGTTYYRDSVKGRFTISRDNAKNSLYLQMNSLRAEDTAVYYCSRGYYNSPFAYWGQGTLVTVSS VL: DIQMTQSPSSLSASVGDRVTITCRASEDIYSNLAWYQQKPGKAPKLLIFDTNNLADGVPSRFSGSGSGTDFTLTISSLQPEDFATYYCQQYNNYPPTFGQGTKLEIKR
condition not met

Value source: patent US20110217237A1
